Species on record: Rattus norvegicus
Assay: Open TG-GATES - Regimen: Single
Format: toxicity, organism-based, Sprague-Dawley
Design: regimen Single, gender Male, age 6 weeks
Settings: in vivo, po, 0 mg/kg, 9 h, tissue Blood, route gavage, dose level Control
Consider the following molecules; for each one, report its Lym.
Give bare numbers, in %.

Here is how some molecules turned out for Lym.
molecule="CNC(=C[N+](=O)[O-])NCCSCc1ccc(CN(C)C)o1 [RANITIDINE]" quantitative_readout=81
molecule="COC(=O)C1=C(C)NC(C)=C(C(=O)OC)C1c1ccccc1[N+](=O)[O-] [NIFEDIPINE]" quantitative_readout=80.6
molecule="CN1C(=O)CCS(=O)(=O)C1c1ccc(Cl)cc1 (stereo unspecified) [CHLORMEZANONE]" quantitative_readout=74.4

Take each entry in turn and give its Lym.
1. NC1=NC(=O)C(c2ccccc2)O1 (stereo unspecified) [PEMOLINE]
2. CC(C)NNC(=O)c1ccncc1 [IPRONIAZID]
3. CCOc1ccc(NC(C)=O)cc1 [PHENACETIN]

1: 75.4; 2: 75.5; 3: 77.4

====

Consider the following compounds; for each one, report its TC.
Organism: Rattus norvegicus
Experiment: Open TG-GATES - Regimen: Single
Type: toxicity, organism-based, Sprague-Dawley
Design: regimen Single, gender Male, age 6 weeks
Settings: in vivo, po, 0 mg/kg, 3 h, tissue Plasma, route gavage, dose level Control
Numbers only, in mg/dL.

Here is how some compounds turned out for TC.
compound="NC1=NC(=O)C(c2ccccc2)O1 (stereo not given)" quantitative_readout=78
compound="CN(C)CCC(c1ccc(Cl)cc1)c1ccccn1 (stereo not given)" quantitative_readout=79.8
compound=CNC(=C[N+](=O)[O-])NCCSCc1ccc(CN(C)C)o1 quantitative_readout=75.2
compound=Brc1ccccc1 quantitative_readout=83.6

Here's the next entry for you.
Any idea what its TC is? The compound is `COC(=O)C1=C(C)NC(C)=C(C(=O)OC)C1c1ccccc1[N+](=O)[O-]` 70.2

====

Species: Rattus norvegicus
Test: Open TG-GATES - Regimen: Single
Format: toxicity, organism-based, Sprague-Dawley
Parameters: regimen Single, gender Male, age 6 weeks
Details: in vivo, po, 0 mg/kg, 24 h, tissue Plasma, route gavage, dose level Control
Quantity: TP
Kindly write the number and append the unit.

Here is how some compounds turned out for TP.
compound="CCOc1ccc(NC(C)=O)cc1 [PHENACETIN]" quantity=TP result="5.7 g/dL"
compound="CNC(=C[N+](=O)[O-])NCCSCc1ccc(CN(C)C)o1 [RANITIDINE]" quantity=TP result="5.7 g/dL"
compound="COC(=O)C1=C(C)NC(C)=C(C(=O)OC)C1c1ccccc1[N+](=O)[O-] [NIFEDIPINE]" quantity=TP result="5.7 g/dL"
compound="Nc1c2c(nc3ccccc13)CCCC2 [TACRINE]" quantity=TP result="5.4 g/dL"

Here's the next entry for you.
Any idea what its TP is? The compound is Brc1ccccc1 [BROMOBENZENE] 5.5 g/dL

====

Organism: Rattus norvegicus
Assay: Open TG-GATES - Regimen: Single
Format: toxicity, organism-based, Sprague-Dawley
Set-up: regimen Single, gender Male, age 6 weeks
Details: in vivo, po, 0 mg/kg, 9 h, tissue Plasma, route gavage, dose level Control
Consider the following compounds; for each one, report its Na.
Numbers only, in meq/L.

compound=CC(C)NNC(=O)c1ccncc1 quantitative_readout=141.8
compound=O=C(OC[C@H]1O[C@@H](OC(=O)c2cc(O)c(O)c(OC(=O)c3cc(O)c(O)c(O)c3)c2)[C@H](OC(=O)c2cc(O)c(O)c(OC(=O)c3cc(O)c(O)c(O)c3)c2)[C@@H](OC(=O)c2cc(O)c(O)c(OC(=O)c3cc(O)c(O)c(O)c3)c2)[C@@H]1OC(=O)c1cc(O)c(O)c(OC(=O)c2cc(O)c(O)c(O)c2)c1)c1cc(O)c(O)c(OC(=O)c2cc(O)c(O)c(O)c2)c1 quantitative_readout=137
compound=Cc1nnc2n1-c1ccc(Cl)cc1C(c1ccccc1Cl)=NC2 quantitative_readout=141.6

Any idea what its Na is? The compound is NC1=NC(=O)C(c2ccccc2)O1 (centres undefined) 140.8

====

Species: Rattus norvegicus
Test: Open TG-GATES - Regimen: Single
Format: toxicity, organism-based, Sprague-Dawley
Parameters: regimen Single, gender Male, age 6 weeks
Details: in vivo, po, 0 mg/kg, 24 h, tissue Plasma, route gavage, dose level Control
Quantity: IP (mg/dL)
Answers are plain numbers, in mg/dL.

line_notation=CC(C)NNC(=O)c1ccncc1 quantity=IP units_text=mg/dL quantitative_readout=7.6
line_notation=COC(=O)C1=C(C)NC(C)=C(C(=O)OC)C1c1ccccc1[N+](=O)[O-] quantity=IP units_text=mg/dL quantitative_readout=8.3

Take each entry in turn and give its IP.
1. CN/C(=N/CCSCc1nc[nH]c1C)NC#N
2. CNC(=C[N+](=O)[O-])NCCSCc1ccc(CN(C)C)o1

[7.7, 7.7]

====

Organism: Rattus norvegicus
Test: Open TG-GATES - Regimen: Daily Repeat
Format: toxicity, organism-based, Sprague-Dawley
Parameters: regimen Daily Repeat, gender Male, age 6 weeks
Conditions: in vivo, po, 0 mg/kg, 72 h, tissue Kidney, route gavage, dose level Control, time 3 day
Consider the following compounds; for each one, report its KIDNEY_R.
Kindly write the number and append the unit.

compound="CN(C)CCC(c1ccc(Cl)cc1)c1ccccn1 (stereo not drawn) [CHLORPHENIRAMINE]" result="0.9 g"
compound="CNC(=C[N+](=O)[O-])NCCSCc1ccc(CN(C)C)o1 [RANITIDINE]" result="1.1 g"

Here's the next entry for you.
Any idea what its KIDNEY_R is? The compound is O=C(OC[C@H]1O[C@@H](OC(=O)c2cc(O)c(O)c(OC(=O)c3cc(O)c(O)c(O)c3)c2)[C@H](OC(=O)c2cc(O)c(O)c(OC(=O)c3cc(O)c(O)c(O)c3)c2)[C@@H](OC(=O)c2cc(O)c(O)c(OC(=O)c3cc(O)c(O)c(O)c3)c2)[C@@H]1OC(=O)c1cc(O)c(O)c(OC(=O)c2cc(O)c(O)c(O)c2)c1)c1cc(O)c(O)c(OC(=O)c2cc(O)c(O)c(O)c2)c1 [TANNIC ACID] 1 g

====

Species: Rattus norvegicus
Assay: Open TG-GATES - Regimen: Daily Repeat
Assay type: toxicity, organism-based, Sprague-Dawley
Design: regimen Daily Repeat, gender Male, age 6 weeks
Conditions: in vivo, po, 0 mg/kg, 72 h, tissue Kidney, route gavage, dose level Control, time 3 day
Quantity: KIDNEY_TOTAL
Kindly write the number and append the unit.

Here is how some molecules turned out for KIDNEY_TOTAL.
molecule=CNC(=C[N+](=O)[O-])NCCSCc1ccc(CN(C)C)o1 result="2.2 g"
molecule="CN1C(=O)CCS(=O)(=O)C1c1ccc(Cl)cc1 (centres undefined)" result="1.8 g"
molecule=CC(C)NNC(=O)c1ccncc1 result="1.9 g"

Any idea what its KIDNEY_TOTAL is? The molecule is `O=C(OC[C@H]1O[C@@H](OC(=O)c2cc(O)c(O)c(OC(=O)c3cc(O)c(O)c(O)c3)c2)[C@H](OC(=O)c2cc(O)c(O)c(OC(=O)c3cc(O)c(O)c(O)c3)c2)[C@@H](OC(=O)c2cc(O)c(O)c(OC(=O)c3cc(O)c(O)c(O)c3)c2)[C@@H]1OC(=O)c1cc(O)c(O)c(OC(=O)c2cc(O)c(O)c(O)c2)c1)c1cc(O)c(O)c(OC(=O)c2cc(O)c(O)c(O)c2)c1` 1.9 g

====

Species on record: Rattus norvegicus
Assay: Open TG-GATES - Regimen: Daily Repeat
Format: toxicity, organism-based, Sprague-Dawley
Set-up: regimen Daily Repeat, gender Male, age 6 weeks
Details: in vivo, po, 0 mg/kg, […], tissue Liver, route gavage, dose level Control, time 28 day
Consider the following compounds; for each one, report its LIVER.
Kindly write the number and append the unit.

Here is how some compounds turned out for LIVER.
line_notation=COC(=O)C1=C(C)NC(C)=C(C(=O)OC)C1c1ccccc1[N+](=O)[O-] result="17.4 g"
line_notation=CN/C(=N/CCSCc1nc[nH]c1C)NC#N result="15.5 g"

Any idea what its LIVER is? The compound is `O=C(OC[C@H]1O[C@@H](OC(=O)c2cc(O)c(O)c(OC(=O)c3cc(O)c(O)c(O)c3)c2)[C@H](OC(=O)c2cc(O)c(O)c(OC(=O)c3cc(O)c(O)c(O)c3)c2)[C@@H](OC(=O)c2cc(O)c(O)c(OC(=O)c3cc(O)c(O)c(O)c3)c2)[C@@H]1OC(=O)c1cc(O)c(O)c(OC(=O)c2cc(O)c(O)c(O)c2)c1)c1cc(O)c(O)c(OC(=O)c2cc(O)c(O)c(O)c2)c1` 17.9 g
